Tested on: HT29 colon
Assay: NCI-60 one-dose screen, 48 h (100 = growth as untreated, 0 = no growth, -100 = all killed)
Conditions: 10 µM unless noted
Compounds without any hit were thinned out: in the full panel of roughly 83,000, 20% have a hit.
# reported growth; entries follow
quantity: growth (%)

compound-structure	test-system	measured-number
CCN1CCN(C(=O)[C@]23CCC(C)(C)C[C@@H]2C2=CC[C@@H]4[C@@]5(C)C/C(=C/c6ccncc6)C(=O)C(C)(C)[C@@H]5CC[C@@]4(C)[C@]2(C)CC3)CC1	HT29 colon	-39.8
CCC(=O)c1c(C)[nH]c(C)c1C	HT29 colon	36.9
Nc1c(Cl)cc(N=Nc2ccccc2)cc1Cl	HT29 colon	100
C=C(C)[C@@H]1CC[C@]2(C(=O)N3CCN(CC)CC3)CC[C@]3(C)[C@H](CC[C@@H]4[C@@](C)(CCC(=O)N5CCN(CC)CC5)[C@H](C(=C)C)CC[C@]43C)[C@@H]12	HT29 colon	17.3
Cc1cc(N2CCN(C)CC2)nc(N(CCNc2ccnc3cc(Cl)ccc23)Cc2ccco2)n1	HT29 colon	5.75
C=C(C)[C@@H]1CC[C@]2(c3nnc(-c4ccncc4)o3)CC[C@]3(C)[C@H](CC[C@@H]4[C@@]5(C)CCC(=O)NC(C)(C)[C@@H]5CC[C@]43C)[C@@H]12	HT29 colon	99.6
Cc1ccc(S(=O)(=O)Nc2ccc(-c3cc(-c4cccc(F)c4)c(C#N)c(N)n3)cc2)cc1	HT29 colon	-7.07

###

Tested on: OVCAR-4 ovarian
Test: NCI-60 one-dose screen, 48 h (100 = growth as untreated, 0 = no growth, -100 = all killed)
Settings: 10 µM unless noted
The panel holds about 83,000 compounds, 20% with a hit somewhere; the sample as a whole holds those more often.
# reported growth; entries follow

compound	test-system	result-units	growth
CCCCC(=O)OC1CCCCC1C (centres undefined)	OVCAR-4 ovarian	%	104
COc1ccc(-c2n/c(=C\c3c(O)[nH]c4ccc(OC)cc34)cc3c2=Nc2ccccc2-3)cc1	OVCAR-4 ovarian	%	-42.1
COc1ccc(NC(=O)c2ccc3c(c2)nc(-c2cc4ccccc4[nH]c2=O)n3-c2cc(C(C)(C)C)[nH]n2)cc1	OVCAR-4 ovarian	%	86.5
COC1=C(Br)C(=O)C(OC)=C(Br)C1=O	OVCAR-4 ovarian	%	96.8
Cc1cc(N(CCCNc2ccnc3cc(Cl)ccc23)Cc2ccco2)nc(N2CCOCC2)n1	OVCAR-4 ovarian	%	65.7
CCCCCC1CCCCN1C(=O)OCC (centres undefined)	OVCAR-4 ovarian	%	105
O=C1c2cc3c(cc2-c2c1c1ccc(F)cc1c(=O)n2CCCN1CCOCC1)OCO3	OVCAR-4 ovarian	%	78.5
C=C(C)[C@@H]1CC[C@]2(C)[C@H](CC=C3[C@@H]4CC(C)(C)CC[C@]4(C(=O)OC)CC[C@]32C)[C@@]1(C)CC/C(N)=N/O	OVCAR-4 ovarian	%	36.4
COc1cccc(-c2nn(-c3ccccc3)cc2-c2ccnc(NCCNS(=O)(=O)c3cccc(F)c3)c2)c1	OVCAR-4 ovarian	%	31.1

###

System: HCT-116 colon
Experiment: NCI-60 one-dose screen, 48 h (100 = growth as untreated, 0 = no growth, -100 = all killed)
Details: 10 µM unless noted
Protocol: Growth inhibition of the HCT-116 human tumor cell line is measured as a screen for anti-cancer activity. Cells are grown in 96 well plates and exposed to the test compound for 48 hours. Compounds are tested at a single concentration, which is 10^-5 M for most compounds. The reported endpoint is percent growth (GI% or GIPRCNT), where numbers from 0 - 100% represent growth inhibition, and numbers from -100% - 0 represent cell death. For example, a value of 40 represents 60% growth inhibition. […]
Compounds without any hit were thinned out: in the full panel of roughly 83,000, 20% have a hit.
Would you mind labelling by growth? At or over 10% is met, under is not met.

compound	class-assignment
C/C(=N\Nc1cc(C)c2ccccc2n1)c1ccccn1	not met
Cc1ccnc2c(OCc3ccccc3)cccc12	met
Cn1cc(-c2nc(-c3cn(C)c4ncccc34)cs2)c2ccccc21	met
CN1CCN(c2ccc3nc(-c4[nH]ncc4Nc4ncnc5[nH]ccc45)[nH]c3c2)CC1	not met
CCCCCC1CCCCN1C(=O)OCC (configuration not stated)	met
Cn1cc(-c2csc(-c3cn(CCCN4CCCCC4)c4ccc(F)cc34)n2)c2cccnc21	met
C#CCn1c(C)cc(C)c(C#N)c1=O	met
N#CC1=C(N)Oc2c(c(N)nn2-c2ccccc2)C1c1ccc(Cl)cc1 (configuration not stated)	met
COC(=O)[C@]12CC[C@@H](C(/C=C/c3cccnc3)=N/O)[C@@H]1[C@H]1CC[C@@H]3[C@@]4(C)CC(=C/c5cccnc5)/C(=N/O)C(C)(C)[C@@H]4CC[C@@]3(C)[C@]1(C)CC2	met
Nc1c(C(=O)Nc2cccc(Cl)c2)sc2ncc(Cl)cc12	met
Clc1ccc2[nH]cc(-c3nc(-c4c[nH]c5ncccc45)cs3)c2c1	met
Cn1cc(-c2csc(-c3cn(CCN)c4ccc(Br)cc34)n2)c2cccnc21	met
N=c1c(S(=O)(=O)c2ccccc2)cc2c(=O)n3ccccc3nc2n1C1CCCC1	met
C=C1C(=O)O[C@H]2[C@H]1CC/C(COC(=O)N[C@H](Cc1c[nH]c3ccccc13)C(=O)OC)=C\CC[C@@]1(C)O[C@@H]21	not met
Fc1ccc(Nc2nc(Nc3ccc(-c4nc5ccccc5[nH]4)cc3)nc(N3CCCC3)n2)cc1	not met
CC(=O)OCCCCCCn1c2ccccc2c2c3c(c4c5ccccc5n(C)c4c21)C(=O)N(O)C3=O	met
C=C1CC[C@@H](C(=O)OC)Cc2nc(C)ccc21	met
CC(=O)O[C@@H]1CCN2C(=O)N(C)c3ccccc3[C@@H]2C1	met
COc1ccc(-c2n[nH]nc2-c2cc3ccccc3s2)cc1O	met
O=C(NC(Cc1cn(Cc2ccccc2)cn1)C(=O)O)OCC1c2ccccc2-c2ccccc21 (configuration not stated)	met
COc1cccc(-c2nn(-c3ccccc3)cc2-c2ccnc(NCCCNS(=O)(=O)c3ccccc3)c2)c1	met
COC(=O)[C@]12CC[C@@H](C)[C@H](C)[C@@H]1C1=CC[C@@H]3[C@@]4(C)C[C@@H](OC(C)=O)[C@H](OC(C)=O)[C@@](C)(COC(C)=O)[C@@H]4[C@H](O)C[C@@]3(C)[C@]1(C)CC2	not met
O=C(O)c1cccc2c1Cc1cc([N+](=O)[O-])ccc1-2	met
CC(CNc1nc(Nc2ccc(Cl)c(Cl)c2)nc(C(Cl)(Cl)Cl)n1)N(C)C (configuration not stated)	not met
O=C(NO)c1ccc(Cn2c(=O)n(-c3ccccc3)c(=O)c3ccccc32)cc1	not met
O=C1C=C(C(O)c2ccc(O)cc2)C(=O)c2ccccc21 (configuration not stated)	met
Cc1cc2nc3c4cc(O)ccc4n(CCN(C)C)c3nc2cc1C	not met
COC(=O)CCCCCn1c2ccccc2c2c3c(c4c5ccccc5[nH]c4c21)C(=O)N(O)C3=O	met
CCCC(=O)N1CCCCC1CC (configuration not stated)	met
O=C(/C=C\c1ccc2c(c1)OCO2)/C=C/c1ccc2c(c1)OCO2	not met
OCC(CO)(CCl)CCl	met
C=C(C)[C@@H]1CC[C@]2(C)[C@H](CC[C@@H]3[C@H]4[C@H]5OC[C@@]4(CCC5(C)C)CC[C@]32C)[C@@]1(C)CCCN	not met
COc1ccccc1CNc1nc(N)nc2[nH]c3ccc(O)cc3c12	met
CC1(C)C=CC[C@]2(C)[C@H]3CC[C@@H]4[C@H]5[C@H](C(=O)/C=C/c6cccnc6)CC[C@]5(CO)CC[C@@]4(C)[C@]3(C)CC[C@@H]12	not met
C=C(C)[C@@H]1CC[C@]2(C(=O)N3CCCNCC3)CC[C@]3(C)[C@H](CC[C@@H]4[C@@]5(C)CCC(=O)C(C)(C)[C@@H]5CC[C@]43C)[C@@H]12	met
COC(=O)[C@]12CC[C@@H](C(C)=O)[C@@H]1[C@H]1CC[C@@H]3[C@@]4(C)C/C(=C/c5cccnc5)C(=O)C(C)(C)[C@@H]4CC[C@@]3(C)[C@]1(C)CC2	not met
COc1cccc2c1C(=O)c1c(O)c3c(c(O)c1C2=O)C[C@@](O)(C(=O)CO)C[C@@H]3OC1C[C@H](N)[C@H](O)[C@H](C)O1 (some centres not stated)	not met
